Target: T1, ARHGEF11, O15085
T1 sequence (O15085 42-136, limits assumed, looked up): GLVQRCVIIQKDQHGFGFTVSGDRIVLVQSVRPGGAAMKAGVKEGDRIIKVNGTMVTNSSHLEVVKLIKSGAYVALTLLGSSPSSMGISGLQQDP
Assay: holdup assay
Design: key: below the threshold = too weak to quantify, mostly under pKd 3.1 to 4
Settings: plain residues with an end cap or a label only (N-terminal biotin on a linker: ttds)
Please use yes (1) whenever pKd is not below 4, and no (0) whenever it is.

Example results:
[[record]]
binder = "NDPAWDETNL [ARHGEF7, Q14155]"
class = "no (0)"

[[record]]
binder = "VDFPPKESSL [ACVR2A, P27037]"
class = "yes (1)"

[[record]]
binder = "PVRVCEETSL [OTULIN, Q96BN8]"
class = "yes (1)"


### Prompt Could you verify whether the entry EVVHTPETSV [SLC16A3, O15427] shows pKd of no less than 4?
### Response no (0)

### Prompt Then RPLPRKVSQL [DOCK4, Q8N1I0] ?
### Response no (0)
